tested on: Rh18; experiment: alamar blue assay, proliferation; format: cell-based; settings: Homo sapiens, Rh18, Rhabdomyosarcoma
pIC50: −log10 of the molar value.
ASSAY METRIC: pIC50

>  <SMILES DATA>
O=C1CC[C@]2(O)c3c(ccc(O)c31)-c1ccc(O)c3c1[C@H]2[C@H]1O[C@H]1C3=O

>  <TARGET ENTITY>
Rh18

>  <ASSAY METRIC>
pIC50

>  <NUMERIC READOUT>
6.00

$$$$
